- assay target: Misshapen-like kinase 1 (Homo sapiens) (UniProt Q8N4C8);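 also: mean inhibition value reported, from GSK PKIS kinase profiling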
- Sequence (Q8N4C8 whole entry, looked up): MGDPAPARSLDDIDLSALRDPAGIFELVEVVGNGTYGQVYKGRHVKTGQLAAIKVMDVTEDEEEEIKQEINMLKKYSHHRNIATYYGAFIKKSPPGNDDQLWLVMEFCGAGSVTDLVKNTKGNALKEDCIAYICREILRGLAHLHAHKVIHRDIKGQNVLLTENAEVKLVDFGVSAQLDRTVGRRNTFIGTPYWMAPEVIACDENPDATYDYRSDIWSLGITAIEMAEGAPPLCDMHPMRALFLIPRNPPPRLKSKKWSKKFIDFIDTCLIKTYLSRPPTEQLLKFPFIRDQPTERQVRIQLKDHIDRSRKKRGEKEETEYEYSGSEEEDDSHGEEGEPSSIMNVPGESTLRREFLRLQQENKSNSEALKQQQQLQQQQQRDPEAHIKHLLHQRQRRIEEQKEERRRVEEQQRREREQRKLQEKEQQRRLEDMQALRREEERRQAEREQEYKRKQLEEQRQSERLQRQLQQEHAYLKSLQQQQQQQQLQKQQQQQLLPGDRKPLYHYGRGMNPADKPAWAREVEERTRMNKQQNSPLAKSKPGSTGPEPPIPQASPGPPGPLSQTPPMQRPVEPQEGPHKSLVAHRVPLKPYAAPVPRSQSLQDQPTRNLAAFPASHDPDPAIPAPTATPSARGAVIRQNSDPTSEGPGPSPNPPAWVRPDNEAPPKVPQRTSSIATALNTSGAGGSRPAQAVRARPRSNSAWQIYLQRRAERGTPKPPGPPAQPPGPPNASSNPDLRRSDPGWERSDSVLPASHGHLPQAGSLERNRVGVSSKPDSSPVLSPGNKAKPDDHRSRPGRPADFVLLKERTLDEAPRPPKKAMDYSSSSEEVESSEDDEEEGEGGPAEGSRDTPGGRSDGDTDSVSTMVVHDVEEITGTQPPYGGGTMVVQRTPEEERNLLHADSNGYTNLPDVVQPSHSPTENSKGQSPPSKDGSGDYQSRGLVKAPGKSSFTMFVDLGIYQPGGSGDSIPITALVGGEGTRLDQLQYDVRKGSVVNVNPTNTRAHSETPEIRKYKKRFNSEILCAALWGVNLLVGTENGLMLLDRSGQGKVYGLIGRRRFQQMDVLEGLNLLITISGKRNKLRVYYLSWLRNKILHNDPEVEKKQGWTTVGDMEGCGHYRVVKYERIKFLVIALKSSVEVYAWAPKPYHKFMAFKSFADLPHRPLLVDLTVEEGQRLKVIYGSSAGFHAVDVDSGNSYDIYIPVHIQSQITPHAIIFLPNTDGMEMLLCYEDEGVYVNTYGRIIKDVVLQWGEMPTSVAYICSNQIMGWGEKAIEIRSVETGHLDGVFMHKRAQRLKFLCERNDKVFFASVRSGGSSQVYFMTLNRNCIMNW
- study conditions: at 0.1 µM
Each record here notes measured inhibition.
quantity kind: inhibition (%)

>>> result("N#Cc1cccc(Nc2nccc(-c3cnn4ncccc34)n2)c1")
16.6
>>> result("CCS(=O)(=O)c1ccc(OC)c(Nc2nccc(N(C)c3ccc4c(C)n[nH]c4c3)n2)c1")
3.64
>>> result("Cc1ccc(Nc2ccnc(Nc3cccc(C(N)=O)c3)n2)cc1O")
6.27
>>> result("N#Cc1c(NC(=O)c2ccccc2F)sc2c1CCCC2")
-1.75
>>> result("Nc1nccc(-c2c(-c3ccc(F)cc3)ncn2CCCN2CCOCC2)n1")
5.84
>>> result("NC(=O)c1sc(-n2cnc3ccccc32)cc1OCc1ccccc1Br")
5.6
>>> result("COc1cccc(-n2ncc3c(N/N=C/c4ccc(C)cc4)ncnc32)c1")
7.18
>>> result("Cc1ccc2c(c1)/C(=N/Nc1ccc(S(N)(=O)=O)cc1)C(=O)N2")
16.2
>>> result("NS(=O)(=O)c1ccc(NC=C2C(=O)Nc3ccc4ncsc4c32)cc1")
62.9
>>> result("Cc1cc(-c2ccccn2)cc(C)c1/C=C/c1cncc(-c2nn[nH]n2)c1")
2.69
>>> result("c1ccc(Cc2nc3ccc(Nc4ncnc5ccccc45)cc3[nH]2)cc1")
4.23
>>> result("Nc1nccc(C#Cc2cncnc2Nc2ccc(OCc3cccc(F)c3)c(Cl)c2)n1")
6.95

* * *

Here, each record is paired with measured inhibition data.
- assay target: Serine/threonine-protein kinase SIK1 (Homo sapiens);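 also: mean inhibition value from the GSK PKIS profiling set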
- study conditions: at 1 µM
quantity kind: inhibition (%)

>>> result("CN(C)C(=O)O[C@H]1CN[C@H](C#Cc2cc3ncnc(Nc4ccc(OCc5cccc(F)c5)c(Cl)c4)c3s2)C1")
5.89
>>> result("CN(C)C(=O)O[C@@H]1CN[C@@H](C#Cc2cc3ncnc(Nc4ccc(OCc5cccc(F)c5)c(Cl)c4)c3s2)C1")
3.96
>>> result("COC(=O)c1ccc2c(c1)C(=Cc1cc(Br)c(O)c(Br)c1)C(=O)N2")
14.4
>>> result("OCc1ccc(-c2nc(-c3ccccn3)c(-c3ccc4c(c3)OCO4)[nH]2)cc1")
5.84
>>> result("ON=C1CCc2cc(-c3nc(C4CCNCC4)[nH]c3-c3ccncc3)ccc21")
0.92
>>> result("C[C@@H](Oc1cc(-n2cnc3ccc(OC[C@@H](O)CO)cc32)sc1C(N)=O)c1ccccc1Cl")
6.54
>>> result("CCS(=O)(=O)c1ccc(OC)c(Nc2ncc(-c3cccc(OC)c3)o2)c1")
28.6
>>> result("Cc1ccc2c(-c3ccnc(Nc4ccc5c(c4)OCCO5)n3)c(-c3ccc(C(F)(F)F)cc3)nn2n1")
-0.13
>>> result("CCn1c(-c2nonc2N)nc2ccc(F)cc21")
8.41
>>> result("CS(=O)(=O)Nc1cccc(-c2ccc3c(NC(=O)C4CC4)n[nH]c3c2)c1")
5.25
>>> result("CC(C)c1ccc(Nc2nccc(-c3cnn4ncccc34)n2)cc1")
8.55
>>> result("O=C1Nc2ccccc2/C1=C/Nc1ccc2[nH]c(=O)[nH]c2c1")
14.9
>>> result("Cc1cc(-c2ccccn2)cc(C)c1/C=C/c1cncc(-c2nn[nH]n2)c1")
74.7

* * *

- assay target: ALK tyrosine kinase receptor (Homo sapiens) (UniProt Q9UM73)
- Sequence (Q9UM73 19-1620 limits assumed): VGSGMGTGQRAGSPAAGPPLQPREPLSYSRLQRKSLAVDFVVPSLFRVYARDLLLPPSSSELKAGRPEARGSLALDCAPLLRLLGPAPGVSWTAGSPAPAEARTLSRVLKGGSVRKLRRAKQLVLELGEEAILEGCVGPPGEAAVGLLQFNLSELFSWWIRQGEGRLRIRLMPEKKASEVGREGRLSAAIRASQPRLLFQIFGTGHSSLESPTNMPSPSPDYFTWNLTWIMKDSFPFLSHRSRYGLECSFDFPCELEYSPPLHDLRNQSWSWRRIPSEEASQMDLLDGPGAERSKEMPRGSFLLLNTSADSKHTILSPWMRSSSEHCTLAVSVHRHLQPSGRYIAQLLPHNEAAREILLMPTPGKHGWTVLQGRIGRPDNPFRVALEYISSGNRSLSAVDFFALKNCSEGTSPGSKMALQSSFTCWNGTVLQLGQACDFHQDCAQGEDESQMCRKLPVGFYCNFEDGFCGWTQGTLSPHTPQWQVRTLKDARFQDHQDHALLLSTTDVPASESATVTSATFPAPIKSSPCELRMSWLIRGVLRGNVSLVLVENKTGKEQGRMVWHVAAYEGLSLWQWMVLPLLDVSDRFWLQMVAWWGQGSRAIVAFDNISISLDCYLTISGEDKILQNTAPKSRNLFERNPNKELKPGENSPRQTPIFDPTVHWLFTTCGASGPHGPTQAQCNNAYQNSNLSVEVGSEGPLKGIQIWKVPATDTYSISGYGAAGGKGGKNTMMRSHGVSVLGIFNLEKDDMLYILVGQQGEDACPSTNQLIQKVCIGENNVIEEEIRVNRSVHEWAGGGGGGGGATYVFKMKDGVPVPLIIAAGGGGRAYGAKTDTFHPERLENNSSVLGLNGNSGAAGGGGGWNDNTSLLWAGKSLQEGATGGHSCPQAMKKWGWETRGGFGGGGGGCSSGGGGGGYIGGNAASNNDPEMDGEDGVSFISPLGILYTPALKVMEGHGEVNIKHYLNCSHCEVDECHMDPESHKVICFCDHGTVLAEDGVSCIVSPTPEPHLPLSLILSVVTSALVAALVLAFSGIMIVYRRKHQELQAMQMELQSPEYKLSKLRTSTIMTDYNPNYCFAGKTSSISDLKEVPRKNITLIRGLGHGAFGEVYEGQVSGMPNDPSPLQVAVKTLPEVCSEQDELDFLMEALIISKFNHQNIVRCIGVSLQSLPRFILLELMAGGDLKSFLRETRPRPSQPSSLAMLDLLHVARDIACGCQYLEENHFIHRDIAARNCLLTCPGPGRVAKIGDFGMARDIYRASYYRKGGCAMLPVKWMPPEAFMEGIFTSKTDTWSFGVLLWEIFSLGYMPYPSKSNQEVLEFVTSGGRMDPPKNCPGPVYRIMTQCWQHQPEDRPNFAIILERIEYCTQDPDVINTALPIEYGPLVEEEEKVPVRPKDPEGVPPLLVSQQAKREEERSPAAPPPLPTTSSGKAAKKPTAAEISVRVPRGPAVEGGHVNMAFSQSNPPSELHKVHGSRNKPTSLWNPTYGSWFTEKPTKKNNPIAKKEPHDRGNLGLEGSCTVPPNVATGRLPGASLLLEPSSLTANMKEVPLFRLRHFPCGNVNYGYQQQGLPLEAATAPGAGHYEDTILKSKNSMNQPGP
- study conditions: at 0.1 µM
- Description: GSK_PKIS: ALK mean inhibition at 0.1 uM [Nanosyn]
Listing: inhibition of selected molecules
quantity kind: inhibition (%)

>>> result("Cc1nc(-c2ccccc2)n2nc(NCCCN3CCOCC3)ncc12")
2.79
>>> result("COc1cc(Nc2nccc(-c3cnn4ncccc34)n2)cc(OC)c1")
5.68
>>> result("CCS(=O)(=O)c1ccc(OC)c(Nc2nccc(N(C)c3ccc4c(C)n[nH]c4c3)n2)c1")
4.29
>>> result("O=C1Nc2ccc(-c3cccnc3)cc2C1=Cc1cc(Br)c(O)c(Br)c1")
4.13
>>> result("COc1cccc(-n2nc(C)c3c(N/N=C(\\C)c4ccncc4)ncnc32)c1")
0.43
>>> result("c1ccc(Nc2ncc(-c3ccccc3)o2)cc1")
2.99
>>> result("Cc1cc(Cl)cc2c1NC(=O)C2=NNc1ccc(S(N)(=O)=O)cc1")
0.72
>>> result("NS(=O)(=O)c1ccc(-c2cc3ccncc3cc2OCc2ccccc2)cc1")
4.77
>>> result("CC(C)c1ccc(Nc2nccc(-c3cnn4ncccc34)n2)cc1")
4.56
>>> result("O=C(Nc1ccc(Oc2ccc3[nH]c(NC(=O)c4ccco4)nc3c2)cc1)Nc1cc(C(F)(F)F)ccc1F")
-1.81
>>> result("ON=C1CCc2cc(-c3nc(C4CCNCC4)[nH]c3-c3ccncc3)ccc21")
2.45
>>> result("Cc1ccc(NC(=O)CC2CC2)cc1-c1ccc(C(=O)NCC2CC2)cc1")
1.68
>>> result("CN(C)c1cc2c(Nc3ccc4c(cnn4Cc4ccccc4)c3)ncnc2cn1")
2.86
>>> result("COC(=O)Nc1nc2cc(Oc3ccc(NC(=O)Nc4cccc(Br)c4)cc3)ccc2[nH]1")
2.06
>>> result("O=S(=O)(CCOCc1ccc(-c2ccc3ncnc(Nc4ccc(OCc5cccc(F)c5)c(Cl)c4)c3c2)o1)c1ccccc1")
0.65
>>> result("CN(C)C(=O)O[C@@H]1CN[C@@H](C#Cc2cc3ncnc(Nc4ccc(OCc5cccc(F)c5)c(Cl)c4)c3s2)C1")
1.27
>>> result("FC(F)(F)c1ccc(-c2nn3ncccc3c2-c2ccnc(Nc3ccc4c(c3)OCCO4)n2)cc1")
-1.39
>>> result("COc1cc(/C=N/Nc2ncnc3c2cnn3C(C)C)ccc1O")
0.72
